B1: CCDC6 (parent)
chain: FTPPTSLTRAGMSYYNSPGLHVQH

- Variants of: B1
- Assay Overview: protein stability index of a GFP-peptide fusion (GPS, HEK-293T) (PSI 1-6); higher = more stable;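 also: lentivirally expressed fusions sorted by FACS into six bins by GFP to DsRed ratio, PSI derived from sequencing read proportions per bin multiplied by bin number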
- Experimental Context: c terminus: a fixed tail appended
Readout Label: protein stability index
I'd appreciate a reply containing only the number, no unit.

| Residue Change | Assay Result |
| --- | --- |
| T5C | 1.74 |

Note protein stability index for the variant shown: L20W
2.79

Note protein stability index for the variant shown: N16T
2.17

Note protein stability index for the variant shown: P3H
1.79
